molecular target: Human plasma kallikrein (Homo sapiens); construct: yields a heavy chain (371 amino acids) and a light chain (248 amino acids); assay: Kallikrein Assay (fluorogenic substrate hydrolysis, AFC release); conditions: purified Human plasma kallikrein 0.5 nM; substrate Acetyl-K—P—R-AFC 100 mM; 50 mM HEPES pH 7.4
pIC50: −log10 of the molar value.
property-label: pIC50

[1] Cc1ccc(C#N)c([C@H]2C[C@@H](NC(=O)c3cn(C(C)c4cnc(N5C[C@H]6C[C@H]6C5=O)cc4C)nn3)C2)c1 (single isomer, unassigned) [Example 67]
[2] Cc1cc(N2C[C@H]3C[C@H]3C2=O)ncc1C(C)n1cc(C(=O)N[C@H]2C[C@@H](c3cc(Cl)ccc3C#N)C2)nn1 (single isomer, unassigned) [Example 60]
[3] Cc1c([C@H](C)n2cc(C(=O)N[C@H]3C[C@@](C)(c4cc(Cl)ccc4C#N)C3)nn2)cnc(N2C[C@H]3C[C@H]3C2=O)c1C
[4] COc1cc(C(C)n2cc(C(=O)N[C@H]3C[C@@H](c4cc(C)ccc4C#N)C3)cn2)cnc1N1C[C@H]2C[C@H]2C1=O (single isomer, unassigned)
Reorder the items by pIC50, least to greatest. Record the ranking as a list of labels in the requested order.
2, 4, 1, 3
(2: 7.84, 4: 8.41, 1: 8.77, 3: 9.70)

* * *

biological target: Human plasma kallikrein (Homo sapiens, UniProt P03952); construct: yields a heavy chain (371 amino acids) and a light chain (248 amino acids); purchased Enzyme Research Laboratories; assay: Kallikrein Assay (fluorogenic substrate hydrolysis, AFC release); type: biochemical; details: purified Human plasma kallikrein 0.5 nM; substrate Acetyl-K—P—R-AFC 100 mM; 50 mM HEPES pH 7.4
Sequence (P03952 391-638 limits assumed): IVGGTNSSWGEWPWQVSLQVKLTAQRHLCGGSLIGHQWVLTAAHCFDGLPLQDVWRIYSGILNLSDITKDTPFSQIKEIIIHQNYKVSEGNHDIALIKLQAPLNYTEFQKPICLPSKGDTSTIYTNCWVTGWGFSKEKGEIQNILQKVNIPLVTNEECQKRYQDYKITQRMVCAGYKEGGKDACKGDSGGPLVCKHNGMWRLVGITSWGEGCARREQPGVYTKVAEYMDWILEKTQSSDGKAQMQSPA
Sequence (P03952 20-390 partner limits assumed): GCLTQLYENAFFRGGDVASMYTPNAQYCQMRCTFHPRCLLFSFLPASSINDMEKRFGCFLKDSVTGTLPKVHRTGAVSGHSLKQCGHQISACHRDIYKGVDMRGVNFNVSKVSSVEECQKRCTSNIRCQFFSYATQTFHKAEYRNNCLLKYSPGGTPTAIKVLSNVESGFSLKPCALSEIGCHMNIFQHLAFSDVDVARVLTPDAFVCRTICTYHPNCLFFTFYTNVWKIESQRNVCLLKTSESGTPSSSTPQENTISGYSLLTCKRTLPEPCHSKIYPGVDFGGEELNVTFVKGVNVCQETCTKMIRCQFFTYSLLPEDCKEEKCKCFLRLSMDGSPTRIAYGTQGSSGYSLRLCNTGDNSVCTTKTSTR
property-label: IC50 (nM)

[I] Cc1ccc(C#N)c([C@]2(C)C[C@H](NC(=O)c3cn([C@@H](C)c4cnc(N5C[C@H]6C[C@H]6C5=O)c(C)c4C)nn3)C2)c1
[II] Cc1cc(N2C[C@H]3C[C@H]3C2=O)nnc1C(C)n1cc(C(=O)N[C@H]2C[C@@H](c3cc(Cl)ccc3C#N)C2)cn1 (single isomer, unassigned) [Example 48]
[III] Cc1nc(N2C[C@H]3C[C@H]3C2=O)ncc1C(C)n1cc(C(=O)NC2CC(C)(c3cc(Cl)ccc3C#N)C2)nn1 (single isomer, unassigned) [Example 82]
[IV] COc1cc(C(C)n2cc(C(=O)N[C@H]3C[C@@H](c4cc(Cl)ccc4C#N)C3)nn2)cnc1N1C[C@H]2C[C@H]2C1=O (mixture of isomers) [Example 100]
Rank descending by IC50: all 4 compounds from above. Would you mind listing the labels in the order requested?
II, IV, III, I

* * *

Biological target: Human plasma kallikrein (Homo sapiens)
Construct: yields a heavy chain (371 amino acids) and a light chain (248 amino acids)
Test: Kallikrein Assay (fluorogenic substrate hydrolysis, AFC release)
Conditions: purified Human plasma kallikrein 0.5 nM; substrate Acetyl-K—P—R-AFC 100 mM; 50 mM HEPES pH 7.4
Experimental: The effectiveness of a compound of the present invention as an inhibitor of Kallikrein can be determined using a relevant purified serine protease, and an appropriate synthetic substrate. The rate of hydrolysis of the chromogenic or fluorogenic substrate by the relevant serine protease was measured both in the absence and presence of compounds of the present invention. […] A decrease in the rate of fluorescence change in the presence of inhibitor is indicative of enzyme inhibition. […]
property-label: IC50 (nM)

Look over these answered cases.
compound	IC50 [nM]
Cc1c([C@@H](C)n2cc(C(=O)N[C@H]3C[C@@H](c4cc(Cl)ccc4C#N)C3)nn2)nc(N2C[C@H]3C[C@H]3C2=O)n1C (single isomer, unassigned)	95.9
CC(c1cnc(N2C[C@H]3C[C@H]3C2=O)nc1)n1cc(C(=O)N[C@H]2C[C@@H](c3cc(Cl)ccc3C#N)C2)c(C#N)n1 (single isomer, unassigned) [Example 18]	10.2

[1] CC(c1cnc(N2C[C@H]3C[C@H]3C2=O)nc1)n1cc(C(=O)N[C@H]2C[C@@H](c3cc(Cl)ccc3C#N)C2)cn1 (single isomer, unassigned) [Example 3]
[2] Cc1ccc(C#N)c([C@H]2C[C@@H](NC(=O)c3cn(C(C)c4cnc(N5C[C@H]6C[C@H]6C5=O)c(F)c4C)nn3)C2)n1 (single isomer, unassigned) [Example 135]
Between 1 and 2 , which one shows the larger IC50 value? Lab note: record the label of whichever item you select.
2
